Experiment: qHTS assay to identify small molecule antagonists of the estrogen related receptor (ERR) signaling pathway from Tox21 library - cell viability counter screen (AID 1224834); further: nearly all actives have a fitted effect of over 30% in size
Settings: ERR reporter cells viability, CellTiter-Fluor, 17.5 h; series mostly up to 92.4 µM
Records with an inconclusive call do not appear. Active and inactive are the calls of the source. The call rests on the fitted dose curve; in most records, active means well fitted cell-killing curve with a large enough effect in the repeat runs; inconclusive means weak or mixed curves; inactive means flat fitted curve, though single readings scatter.
Outcomes you can answer with include only these: active, inactive

| compound | assigned label |
| --- | --- |
| CC(Cc1ccccc1)N(C)Cc1ccco1 (configuration not stated) | inactive |
| C=CC(=O)[O][Sn]([CH2]CCC)([CH2]CCC)[CH2]CCC | active |
| CCN(CC)Cc1nccn1-c1ccc([N+](=O)[O-])cc1C(=O)c1ccccc1Cl | inactive |
| [Cl-].[Cl-].[Sn+2] | inactive |
| O=C(Nc1ccc(F)cc1F)c1cccnc1Oc1cccc(C(F)(F)F)c1 | inactive |

Input line: I'd appreciate the recorded outcome for `CCN(CC)C(=O)N[C@@H]1C=C2c3cccc4[nH]cc(c34)C[C@@H]2N(C)C1` from this test.
Output line: inactive

Input line: Okay, and `O=c1c2ccccc2c(=O)c2c1cc(Cl)c1[nH]c3c([nH]c12)c(Cl)cc1c(=O)c2ccccc2c(=O)c13` ?
Output line: inactive
